Target: hErbB3.mmh (soluble monomeric human ErbB3 extracellular domain with C-terminal myc-myc-hexahistidine tag) (human, UniProt P21860 20-642)
Sequence (P21860 other isoform, or with tags, fused parts or gaps): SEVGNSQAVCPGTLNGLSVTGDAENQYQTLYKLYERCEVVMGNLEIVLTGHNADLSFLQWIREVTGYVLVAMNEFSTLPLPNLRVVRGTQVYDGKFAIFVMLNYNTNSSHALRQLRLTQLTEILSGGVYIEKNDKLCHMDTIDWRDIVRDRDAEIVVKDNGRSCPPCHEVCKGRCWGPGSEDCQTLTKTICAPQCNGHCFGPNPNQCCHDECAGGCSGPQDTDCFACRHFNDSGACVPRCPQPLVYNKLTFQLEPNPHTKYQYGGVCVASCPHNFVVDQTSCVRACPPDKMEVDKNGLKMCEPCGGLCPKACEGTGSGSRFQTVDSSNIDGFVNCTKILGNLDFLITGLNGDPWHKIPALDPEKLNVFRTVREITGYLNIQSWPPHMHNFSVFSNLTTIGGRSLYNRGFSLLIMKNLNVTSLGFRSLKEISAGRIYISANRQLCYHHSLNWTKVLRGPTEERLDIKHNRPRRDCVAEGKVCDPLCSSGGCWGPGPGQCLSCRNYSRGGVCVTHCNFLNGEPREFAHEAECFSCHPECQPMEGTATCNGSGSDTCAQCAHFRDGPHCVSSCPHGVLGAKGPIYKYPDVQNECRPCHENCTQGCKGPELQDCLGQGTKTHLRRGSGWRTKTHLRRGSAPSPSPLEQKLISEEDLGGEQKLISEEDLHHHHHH
Assay: SPR (Biacore), 25 C, mAb capture format
Entries annotated with measured koff

{"binder": "H2M1936N (antibody, V domains shown, Hybridoma chimeric antibody: human variable domains, mouse IgG2 Fc (H2M prefix)) VH: EMQLVESGGGLVQPDRSLRLSCAASGFNFDNYAIHWVRQAPGKGLEWVSGISWNSGNIGYADSVKGRFTISRDNAKNSLFLLMNSLRPDDSALYYCTRGYNWNALSPMDVWGQGTTVTVSS VL: DIQMTQSPSSLSASVGDRVTVTCRASQGISNYLAWYQQKPGKVPKLLIYAASTLQSGVPSRFSGSGSGTDFTLTISSLQPEDVASYYCQNYNSAPMTFGQGTKVEIK", "koff / s⁻¹": 0.000285}
{"binder": "H4H2114P (antibody, V domains shown, Fully human, human IgG4 Fc (H4H prefix)) VH: QVQLVESGGGVVQPGRSLRLSCAASGFTFSSYGMHWVRQAPGKGLEWVAGMSYDGSSKYYEDSVKGRFTISRDNSKNTLNLQMNSLRVEDTAVYYCAKERDYVEYVDSYYGMDVWGQGTTVTVSA VL: AIQMTQSPSSLSASVGDRVTITCRASQGIRNDLGWYQQKPGKAPKVLIYAASSLQSGVPSRFSGSGSGTVFTLTISSLQPEDFATYYCLQDYNYPLTFGGGTKVEIKR", "koff / s⁻¹": "9.88e-05"}
